# target-entity: U1A K50A (UniProt P09012 10-89, K50A)
# Sequence (P09012 10-89 K50A): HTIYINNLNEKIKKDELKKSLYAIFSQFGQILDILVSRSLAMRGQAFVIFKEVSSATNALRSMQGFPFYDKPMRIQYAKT
# protocol-text: fluorescence polarization
measurement-label: pKd
Friendly reminder that pKd comes from taking -log10 of the concentration in mol/L.

Incoming: Quick one: pKd for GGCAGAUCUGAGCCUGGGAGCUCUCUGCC (structured_RNA) [TAR RNA] ?
Outgoing: 4.40
